run-description: self-splicing fitness, log relative to wild type (ln ratio); higher = more splicing; Tetrahymena group I intron in knt gene, E. coli kanamycin selection, DiMSum; sequences stand for … in CUCUCU…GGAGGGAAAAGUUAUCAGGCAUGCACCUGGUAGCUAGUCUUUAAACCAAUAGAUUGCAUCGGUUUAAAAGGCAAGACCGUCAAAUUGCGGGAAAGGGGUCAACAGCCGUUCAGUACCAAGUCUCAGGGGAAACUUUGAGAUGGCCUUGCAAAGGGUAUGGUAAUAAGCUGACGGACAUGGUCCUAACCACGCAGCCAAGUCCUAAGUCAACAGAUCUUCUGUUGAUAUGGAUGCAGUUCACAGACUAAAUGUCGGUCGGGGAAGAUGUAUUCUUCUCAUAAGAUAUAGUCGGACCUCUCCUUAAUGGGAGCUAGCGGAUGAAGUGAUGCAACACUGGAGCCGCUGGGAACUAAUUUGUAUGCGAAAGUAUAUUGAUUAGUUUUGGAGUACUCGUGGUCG;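 also: selection with 25 µg/mL kanamycin versus none on LB agar overnight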
settings: 37 °C
Mark label 0 for self-splicing fitness (ln) values under -2, and label 1 for everything at or above.

Please indicate if the recorded self-splicing fitness (ln) for AAGUAGCAAUAUUACGCAAU meets or exceeds -2.
label 1

Also need AUGCAGCAAUAUUACGGCGU , thanks.
label 1

Would you mind doing AGGGAGCAAUAUUACGGUUA as well?
label 0

And GCUGAGCAAUAUUACGUAGA ?
label 1

Query GGGCAGCAAUAUUACGCUGG next
label 0

Okay, and GCGCAGCAAUAUUACGUUGG ?
label 1

What would you report for AUCAAGCAAUAUUACGUCAA ?
label 1

Repeat for the following sequence: AUGGAGCAAUAUUACGACGA
label 1

// same read-out, input: AGUAAGCAAUAUUACGGAUC
label 1

Quick one: UUCAAGCAAUAUUACGCUCG
label 0

Follow-up item: CAACAGCAAUAUUACGUCGA
label 1

Proceed to UGCUAGCAAUAUUACGUCGG
label 1

One more sequence: GACUAGCAAUAUUACGACGA
label 1

What would you report for GCUAAGCAAUAUUACGGAGC ?
label 0

Same read-out for GAGGAGCAAUAUUACGUAGG ?
label 1

Next up: UCCCAGCAAUAUUACGGAGG
label 0

ACGUAGCAAUAUUACGGUAU , same question.
label 1

Quick one: GAGAAGCAAUAUUACGGUUA
label 1

Please give the result for GGCGAGCAAUAUUACGCGGG too.
label 0

And what about the sequence AAGCAGCAAUAUUACGAGUA ?
label 0

Also CGCGAGCAAUAUUACGUCGG ?
label 1

Input UUUAAGCAAUAUUACGGGCC
label 0

Param item: CUUGAGCAAUAUUACGCUAA
label 0

Moving on to CCGCAGCAAUAUUACGUGGG
label 0

Try UUCGAGCAAUAUUACGAAAA next.
label 1

Another: GAGGAGCAAUAUUACGAAAC
label 1

Now the same for AUACAGCAAUAUUACGCCAC
label 0

---

run-description: self-splicing fitness, log relative to wild type (ln ratio); higher = more splicing; Tetrahymena group I intron in knt gene, E. coli kanamycin selection, DiMSum; sequences stand for … in CUCUCU…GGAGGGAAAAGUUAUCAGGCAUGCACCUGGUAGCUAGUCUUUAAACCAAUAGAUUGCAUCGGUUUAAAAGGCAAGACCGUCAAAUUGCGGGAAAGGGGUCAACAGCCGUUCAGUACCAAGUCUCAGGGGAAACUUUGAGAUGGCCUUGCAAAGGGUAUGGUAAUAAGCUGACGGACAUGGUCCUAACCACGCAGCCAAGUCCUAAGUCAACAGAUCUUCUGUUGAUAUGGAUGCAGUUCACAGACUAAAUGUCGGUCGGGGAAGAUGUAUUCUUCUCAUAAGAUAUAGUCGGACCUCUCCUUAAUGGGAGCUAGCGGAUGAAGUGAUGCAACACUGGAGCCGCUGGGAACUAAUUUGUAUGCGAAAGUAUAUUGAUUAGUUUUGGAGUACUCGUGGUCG
settings: 37 °C
value-kind: self-splicing fitness (ln)
// keep it numeric: no unit symbol after the value

Record request: self-splicing fitness (ln) value, item GGGAAGCAAUAUUACGCUCA
-0.0289

Same thing, different sequence: UUCAAGCAAUAUUACGGCUC
-0.923

And for GACCAGCAAUAUUACGAGUC ?
-2.06

Can you handle AGAUAGCAAUAUUACGCUUG next?
-0.783

Moving on to GUGAAGCAAUAUUACGCACC
-1.92

And what about the sequence UGCAAGCAAUAUUACGCUGU ?
-2.93

Same again, this time with UCGCAGCAAUAUUACGAAGA
-1.43

What do we get for GCCGAGCAAUAUUACGCAAU ?
-1.35

Likewise for CUUAAGCAAUAUUACGUCCU ?
-2.43

---

run-description: self-splicing fitness, log relative to wild type (ln ratio); higher = more splicing; Tetrahymena group I intron in knt gene, E. coli kanamycin selection, DiMSum; sequences stand for … in CUCUCU…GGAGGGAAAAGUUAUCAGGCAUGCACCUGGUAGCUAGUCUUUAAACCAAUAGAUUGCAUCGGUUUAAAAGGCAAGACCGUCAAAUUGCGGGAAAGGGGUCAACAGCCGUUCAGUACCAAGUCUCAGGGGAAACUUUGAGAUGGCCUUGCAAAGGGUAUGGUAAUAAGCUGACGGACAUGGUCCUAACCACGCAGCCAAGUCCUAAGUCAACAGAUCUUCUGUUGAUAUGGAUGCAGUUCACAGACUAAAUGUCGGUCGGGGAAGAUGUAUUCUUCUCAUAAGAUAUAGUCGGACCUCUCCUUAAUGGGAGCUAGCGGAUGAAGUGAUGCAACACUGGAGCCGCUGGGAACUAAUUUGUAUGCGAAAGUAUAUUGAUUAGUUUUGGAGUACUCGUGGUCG
settings: 37 °C
Exercise: for every item that follows, state its recorded self-splicing fitness (ln).
Quick one: just the number, no unit, thanks!

# query: self-splicing fitness (ln) of entry GGCUAGCAAUAUUACGAGUC
-1.08

Input GAGUAGCAAUAUUACGCCCU
-0.124

Try this sequence too: CGGAAGCAAUAUUACGUCAA
-3.55

Continue with UCUCAGCAAUAUUACGAAUC
-2.58

Try this sequence too: GUUUAGCAAUAUUACGUCUA
-0.618

Cool, now AGGAAGCAAUAUUACGCAUG
-1.31

Also, UGCUAGCAAUAUUACGCGGA please.
-1.24

How about UUCCAGCAAUAUUACGACGG ?
-1.98

Then what about the sequence UCUUAGCAAUAUUACGACGA ?
-1.68

---

run-description: self-splicing fitness, log relative to wild type (ln ratio); higher = more splicing; Tetrahymena group I intron in knt gene, E. coli kanamycin selection, DiMSum; sequences stand for … in CUCUCU…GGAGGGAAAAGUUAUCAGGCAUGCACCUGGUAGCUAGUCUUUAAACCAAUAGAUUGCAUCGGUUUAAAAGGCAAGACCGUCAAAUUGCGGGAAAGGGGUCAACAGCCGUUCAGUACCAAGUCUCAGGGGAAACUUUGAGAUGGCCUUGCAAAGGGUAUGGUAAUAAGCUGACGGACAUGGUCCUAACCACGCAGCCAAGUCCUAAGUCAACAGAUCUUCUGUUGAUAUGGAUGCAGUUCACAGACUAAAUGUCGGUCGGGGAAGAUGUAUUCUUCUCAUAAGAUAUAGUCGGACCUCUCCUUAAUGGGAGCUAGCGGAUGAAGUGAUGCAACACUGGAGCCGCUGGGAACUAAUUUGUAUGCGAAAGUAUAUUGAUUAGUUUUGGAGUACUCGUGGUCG
settings: 37 °C
Rule: self-splicing fitness (ln) of -0.8 or more gives criterion met; anything lower gives criterion not met.

Check this sequence for self-splicing fitness (ln) at or above -0.8: AGUUAGCAAUAUUACGCCAU
criterion not met

Ok, now UGGGAGCAAUAUUACGUAAG
criterion not met

Now consider AUAGAGCAAUAUUACGCUAC and answer again.
criterion not met

Same question for AGGUAGCAAUAUUACGUCAU please.
criterion not met

// next record GCGUAGCAAUAUUACGAAUU
criterion met

How about CCGUAGCAAUAUUACGCAGA ?
criterion not met

Now this one: AACCAGCAAUAUUACGUAGU
criterion not met

Also check UCAGAGCAAUAUUACGCACA
criterion met

Then CGGUAGCAAUAUUACGCCCU ?
criterion met

Ok, now AUGCAGCAAUAUUACGGCUG
criterion not met

Please answer likewise for UCCAAGCAAUAUUACGUUUA
criterion not met

Next entry: CACUAGCAAUAUUACGCUAC
criterion not met

Also CAAGAGCAAUAUUACGAUGU ?
criterion not met

And the next one, AACAAGCAAUAUUACGAAAU ?
criterion not met

Continue with ACAAAGCAAUAUUACGACCG
criterion met

Input CCUAAGCAAUAUUACGUGUU
criterion not met

Record: CUGUAGCAAUAUUACGACGA
criterion met

# iterate: CAUAAGCAAUAUUACGAGUU
criterion not met

Another: UAGUAGCAAUAUUACGUAGU
criterion not met

Can you handle ACAAAGCAAUAUUACGUACG next?
criterion met

Next up: CUUGAGCAAUAUUACGCAGG
criterion not met

Also, UUUUAGCAAUAUUACGCUCG please.
criterion met

For GACUAGCAAUAUUACGAUAU then?
criterion met

// same read-out, input: AAACAGCAAUAUUACGUUUC
criterion not met
